Reference for the values: patent US5977063A

Form field: Minimal Inhibitory Concentration (MIC) RESISTANT (one value per entry).
System: Enterococcus faecium and faecalis (RESISTANT)
Type: cell-based
condition: geometric mean of 4-6 isolates
observation type: Minimal Inhibitory Concentration (MIC) RESISTANT

| compound | system tested | bound type | value reported |
| --- | --- | --- | --- |
| C[C@@H]1O[C@@H](O[C@H]2[C@H](Oc3c4cc5cc3Oc3ccc(cc3Cl)[C@@H](O[C@H]3C[C@](C)(N)[C@@H](O)[C@H](C)O3)[C@@H]3NC(=O)[C@H](NC(=O)[C@@H]5NC(=O)[C@H](CC(N)=O)NC(=O)[C@H](NCCCCCCCCc5ccccc5)[C@H](O)c5ccc(c(Cl)c5)O4)c4ccc(O)c(c4)-c4c(O)cc(O)cc4[C@@H](C(=O)O)NC3=O)O[C@H](CO)[C@@H](O)[C@@H]2O)C[C@](C)(N)[C@H]1O [Example 19, N^1 -(8-PHENYL-n-OCTYL)DESLEUCYL-A82846B] | Enterococcus faecium and faecalis (RESISTANT) | = | 45 |
| CCCCCCN[C@H]1C(=O)N[C@@H](CC(N)=O)C(=O)N[C@H]2C(=O)N[C@H]3C(=O)N[C@H](C(=O)N[C@H](C(=O)O)c4cc(O)cc(O)c4-c4cc3ccc4O)[C@H](O[C@H]3C[C@](C)(NCCCCCC)[C@@H](O)[C@H](C)O3)c3ccc(c(Cl)c3)Oc3cc2cc(c3O[C@@H]2O[C@H](CO)[C@@H](O)[C@H](O)[C@H]2O[C@H]2C[C@](C)(NCCCCCC)[C@@H](O)[C@H](C)O2)Oc2ccc(cc2Cl)[C@H]1O [Example 8] | Enterococcus faecium and faecalis (RESISTANT) | = | 76 |
| C[C@@H]1O[C@@H](O[C@@H]2c3ccc(c(Cl)c3)Oc3cc4cc(c3O[C@@H]3O[C@H](CO)[C@@H](O)[C@H](O)[C@H]3O[C@H]3C[C@](C)(NCCCCCCCCCCc5ccccc5)[C@@H](O)[C@H](C)O3)Oc3ccc(cc3Cl)[C@@H](O)[C@@H](NCCCCCCCCCCc3ccccc3)C(=O)N[C@@H](CC(N)=O)C(=O)N[C@H]4C(=O)N[C@H]3C(=O)N[C@@H]2C(=O)N[C@H](C(=O)O)c2cc(O)cc(O)c2-c2cc3ccc2O)C[C@](C)(N)[C@H]1O [Example 16] | Enterococcus faecium and faecalis (RESISTANT) | > | 128 |
| CC1OC(OC2c3ccc(c(Cl)c3)Oc3cc4cc(c3OC3OC(CO)C(O)C(O)C3OC3CC(C)(N)C(O)C(C)O3)Oc3ccc(cc3Cl)C(O)C(NCCCCCCCCCCCCc3ccccc3)C(=O)NC(CC(N)=O)C(=O)NC4C(=O)NC3C(=O)NC2C(=O)NC(C(=O)O)c2cc(O)cc(O)c2-c2cc3ccc2O)CC(C)(N)C1O (stereo not shown) [Example 1] | Enterococcus faecium and faecalis (RESISTANT) | = | 13 |

----------
Test system: Staphylococcus aureus 489
procedure text: MIC, standard broth micro-dilution assay, SA 489
Format: cell-based
Design: unit not given here
observation type: Minimal Inhibitory Concentration (MIC) SA 489

| compound | value reported |
| --- | --- |
| C[C@@H]1O[C@@H](O[C@@H]2c3ccc(c(Cl)c3)Oc3cc4cc(c3O[C@@H]3O[C@H](CO)[C@@H](O)[C@H](O)[C@H]3O[C@H]3C[C@](C)(NCc5ccc(-c6ccccc6)cc5)[C@@H](O)[C@H](C)O3)Oc3ccc(cc3Cl)[C@@H](O)[C@@H](NCc3ccc(-c5ccccc5)cc3)C(=O)N[C@@H](CC(N)=O)C(=O)N[C@H]4C(=O)N[C@H]3C(=O)N[C@@H]2C(=O)N[C@H](C(=O)O)c2cc(O)cc(O)c2-c2cc3ccc2O)C[C@](C)(N)[C@H]1O | 2 |
| C[C@@H]1O[C@@H](O[C@H]2[C@H](Oc3c4cc5cc3Oc3ccc(cc3Cl)[C@@H](O[C@H]3C[C@](C)(N)[C@@H](O)[C@H](C)O3)[C@@H]3NC(=O)[C@H](NC(=O)[C@@H]5NC(=O)[C@H](CC(N)=O)NC(=O)[C@H](NCc5ccccc5)[C@H](O)c5ccc(c(Cl)c5)O4)c4ccc(O)c(c4)-c4c(O)cc(O)cc4[C@@H](C(=O)O)NC3=O)O[C@H](CO)[C@@H](O)[C@@H]2O)C[C@](C)(N)[C@H]1O [Example 12, N^1 -BENZYLDESLEUCYL-A82846B] | 64 |
| CCCCCCN[C@H]1C(=O)N[C@@H](CC(N)=O)C(=O)N[C@H]2C(=O)N[C@H]3C(=O)N[C@H](C(=O)N[C@H](C(=O)O)c4cc(O)cc(O)c4-c4cc3ccc4O)[C@H](O[C@H]3C[C@](C)(NCCCCCC)[C@@H](O)[C@H](C)O3)c3ccc(c(Cl)c3)Oc3cc2cc(c3O[C@@H]2O[C@H](CO)[C@@H](O)[C@H](O)[C@H]2O[C@H]2C[C@](C)(NCCCCCC)[C@@H](O)[C@H](C)O2)Oc2ccc(cc2Cl)[C@H]1O | 8 |
